tested on: BDF1 mice, Adenocarcinoma 755 s.c., tumor weight T/C; assay: NCI In Vivo Anticancer Drug Screen. Data for tumor model Adenocarcinoma 755 (subcutaneous) in B6D2F1 (BDF1) mice; conditions: endpoint: mean tumor weight; dose: 31.0 mg/kg/injection; schedule: Q01DX011 (ip); vehicle: methylcellulose (MC); higher = larger tumour
OBSERVABLE: T/C

>>> value("CSc1ncc(Br)c(Nc2ccc(Br)cc2)n1")
"103 % of control"
>>> value("Cc1ccccc1Nc1cc(=S)nc(N)[nH]1")
"91 % of control"
>>> value("CCCCNc1nc(SCc2ccc(Cl)cc2Cl)ncc1C")
"91 % of control"

[in] Report measured T/C; entry is CNc1nc(SCc2ccc(Cl)cc2Cl)ncc1C
[out] 69 % of control

[in] Please indicate T/C recorded for CSc1ncc(Br)c(Nc2ccccc2C)n1
[out] 87 % of control

[in] Give reported T/C value for CCN(CC)c1nc(SCc2ccc(Cl)cc2Cl)ncc1C
[out] 89 % of control

[in] Provide measured T/C value, entry: Cc1cnc(SCc2ccccc2)[nH]c1=O
[out] 104 % of control

This collection of values is drawn from PubChem BioAssay AID180.
